TARGET UNDER TEST: human TLR8 (hTLR8) (Homo sapiens)
Sequence (Q9NR97 27-1041): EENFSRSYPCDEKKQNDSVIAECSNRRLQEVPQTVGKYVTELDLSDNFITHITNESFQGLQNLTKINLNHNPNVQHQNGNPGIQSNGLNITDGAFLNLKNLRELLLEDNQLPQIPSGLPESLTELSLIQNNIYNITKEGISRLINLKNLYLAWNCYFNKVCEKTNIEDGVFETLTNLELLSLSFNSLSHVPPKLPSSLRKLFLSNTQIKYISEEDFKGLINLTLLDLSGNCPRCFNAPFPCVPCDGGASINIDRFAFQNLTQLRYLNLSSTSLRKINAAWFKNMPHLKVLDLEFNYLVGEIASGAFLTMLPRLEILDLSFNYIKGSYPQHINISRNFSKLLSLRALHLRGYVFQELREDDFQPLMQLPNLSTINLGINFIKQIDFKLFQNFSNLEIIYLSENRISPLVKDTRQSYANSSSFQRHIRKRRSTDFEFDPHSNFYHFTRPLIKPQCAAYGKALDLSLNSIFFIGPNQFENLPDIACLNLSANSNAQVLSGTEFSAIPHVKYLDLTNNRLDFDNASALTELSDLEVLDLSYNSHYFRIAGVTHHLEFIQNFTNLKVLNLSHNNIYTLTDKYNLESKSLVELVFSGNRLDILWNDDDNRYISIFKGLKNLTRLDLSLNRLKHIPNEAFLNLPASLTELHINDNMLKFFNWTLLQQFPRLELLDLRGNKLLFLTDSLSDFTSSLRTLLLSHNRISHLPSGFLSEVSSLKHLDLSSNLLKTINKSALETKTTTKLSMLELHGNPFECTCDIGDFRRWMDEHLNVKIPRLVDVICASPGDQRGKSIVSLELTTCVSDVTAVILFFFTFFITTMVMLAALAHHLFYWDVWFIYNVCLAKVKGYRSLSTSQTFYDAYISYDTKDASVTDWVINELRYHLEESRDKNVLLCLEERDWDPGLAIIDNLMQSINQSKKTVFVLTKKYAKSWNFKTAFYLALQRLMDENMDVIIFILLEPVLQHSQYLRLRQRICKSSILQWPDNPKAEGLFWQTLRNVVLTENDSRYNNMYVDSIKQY
PROTOCOL: Human TLR8 agonist activity assay (measured in a similar manner)
MEASUREMENT CONDITIONS: HEK-Blue TLR cells, SEAP reporter, measured in a similar manner to TLR7; some values average of multiple measurements
Listing of recorded EC50 by entry.

| MOLECULE | TARGET UNDER TEST | UNIT OF MEASUREMENT | EC50 |
| --- | --- | --- | --- |
| CCCCN(CCO)c1nc(N)nc2cn(Cc3ccc(CN4CC5(CC(O)C5)C4)cc3OC)nc12 [Compound 27] | human TLR8 (hTLR8) (Homo sapiens) | nM | 1950 |
| CCCCN(CCO)c1nc(N)nc2cn(Cc3ccc(CNCC)cc3OC)nc12 [Compound 17] | human TLR8 (hTLR8) (Homo sapiens) | nM | 745 |
| CCCCN(CCO)c1nc(N)nc2cn(Cc3ccc(CNC4CCOCC4)c4c3OCCC4)nc12 [Compound 137] | human TLR8 (hTLR8) (Homo sapiens) | nM | 400 |
| CCCCN(CCO)c1nc(N)nc2cn(Cc3ccc(CNCCO)cc3)nc12 [Compound 160] | human TLR8 (hTLR8) (Homo sapiens) | nM | 1970 |
| CCCCN(CCO)c1nc(N)nc2c(C)n(Cc3ccc(CNC4CCOCC4)cc3OC)nc12 [Compound 212] | human TLR8 (hTLR8) (Homo sapiens) | nM | 112 |
| CCCCN(CCO)c1nc(N)nc2cn(Cc3ccc(CNC4CCC4)cc3NC)nc12 [Compound 102] | human TLR8 (hTLR8) (Homo sapiens) | nM | 1800 |
| CCCCN(CCO)c1nc(N)nc2cn(Cc3c(OC)cc(CNC4CCOCC4)cc3OC)nc12 [Compound 144] | human TLR8 (hTLR8) (Homo sapiens) | nM | 2060 |
| CCCCN(CCO)c1nc(N)nc2cn(Cc3ccc(CN4CC(CCO)C4)c4cccnc34)nc12 [Compound 62] | human TLR8 (hTLR8) (Homo sapiens) | nM | 675 |
| CCCCN(CCO)c1nc(N)nc2cn(Cc3ccc(CNC(C)(C)C)n4ncnc34)nc12 [Compound 189] | human TLR8 (hTLR8) (Homo sapiens) | nM | 570 |
| CCCCN(CCO)c1nc(N)nc2cn(Cc3ccc(CNCCOC)c4nccnc34)nc12 [Compound 208] | human TLR8 (hTLR8) (Homo sapiens) | nM | 1270 |
| CCCCN(CCO)c1nc(N)nc2cn(Cc3cc(OC)c(C4CCN(CC(C)(C)O)CC4)cc3OC)nc12 [Compound 107] | human TLR8 (hTLR8) (Homo sapiens) | nM | 3030 |
| CCCCN(CCO)c1nc(N)nc2cn(Cc3ccc(CN[C@H]4CC[C@H](O)CC4)c4cccnc34)nc12 [Compound 169] | human TLR8 (hTLR8) (Homo sapiens) | nM | 628 |
| CCCCN(CCO)c1nc(N)nc2cn(Cc3c(F)cc(CNCCOC)cc3OC)nc12 [Compound 73] | human TLR8 (hTLR8) (Homo sapiens) | nM | 593 |
| CCC[C@@H](CO)N(C)c1nc(N)nc2cn(Cc3ccc(CN4CCCC4)cc3OC)nc12 [Compound 87] | human TLR8 (hTLR8) (Homo sapiens) | nM | 1820 |
| CCCCN(CCO)c1nc(N)nc2cn(Cc3c(F)cc(C4=CC[C@@H](NC5CC6(COC6)C5)CC4)cc3OC)nc12 [Compound 194] | human TLR8 (hTLR8) (Homo sapiens) | nM | 1130 |
| CCCCN(c1nc(N)nc2cn(Cc3ccc(CN4CCCCC4)cc3OC)nc12)C(C)CO (single isomer, unassigned) [Compound 49-2] | human TLR8 (hTLR8) (Homo sapiens) | nM | 682 |
| CCCCN(CCO)c1nc(N)nc2cn(Cc3ccc(CNC4CCC(F)(F)CC4)c4scnc34)nc12 [Compound 203] | human TLR8 (hTLR8) (Homo sapiens) | nM | 2400 |
| CCCCN(CCO)c1nc(N)nc2cn(Cc3ccc(CN[C@@H]4CCCN(S(C)(=O)=O)C4)c4cccnc34)nc12 [Compound 200] | human TLR8 (hTLR8) (Homo sapiens) | nM | 879 |
| CCCCN(CCO)c1nc(N)nc2cn(Cc3ccc(CN4CCCC4)cc3OC)nc12 [Compound 4] | human TLR8 (hTLR8) (Homo sapiens) | nM | 633 |
